system: LOX IMVI; experiment: NCI tumour cell line growth inhibition, 48 h
The source made the active and inactive calls. Rule as the data show it: active = GI50 up to about 1.1 µM and inactive = higher.
Just give me one of these, please: y = active, n = inactive

# molecule, assigned-label
data = [
    ("N#C/C(=C\\c1ccccc1)C(=O)Nc1nnc(-c2ccccc2)o1", "n"),
    ("O=c1n(CCCN2CCN(c3cccc(Cl)c3)CC2)nc2n1-c1ccc3ccccc3c1SC2", "n"),
    ("CC1CC2OC(=O)C3CC(O)CC(=C23)[C@@]12C[C@@H](c1ccoc1)OC2=O (stereo partly specified)", "n"),
]

Recorded call for N=c1c2c3n(c4c(=O)n(-c5ccccc5)c(=S)n(c(=O)n1-c1ccccc1)c24)CCCCC3 ? n

Recorded call for Clc1ccc(SCCSCCCCCCCCCCSCCSc2ccc(Cl)cc2)cc1 ? n

Recorded call for N#CC(C(=O)C(=O)Nc1ccc(Cl)c(Cl)c1)c1ccc(Cl)cc1 (stereo unspecified) ? n

Recorded call for CC(=O)N1C(=O)c2cc3ccccc3cc21 ? n

Recorded call for O=C1/C(=C/c2cccs2)NC(=S)N1CN1CCCC(CO)C1 (stereo unspecified) ? n

====

tested on: HCT-116; experiment: NCI tumour cell line growth inhibition, 48 h
Active and inactive are the calls of the source. No stated cut-off is given here; in the data, active = GI50 up to about 1.1 µM and inactive = higher.
Just give me one of these, please: T = active, F = inactive

# compound, assigned-label
data = [
    ("O=C(O)CCc1cccc2c1oc1c(CCC(=O)O)cccc12", "F"),
]

Recorded call for CSc1ccc(OCC2OC2O)cc1 (stereo unspecified) ? F

Recorded call for C=CCNC(=S)N1c2ccccc2NC(=O)CC1C (stereo unspecified) ? F

Recorded call for O[C@]12C=C(c3nccc4c3[nH]c3ccccc34)[C@@H]3CCN(CCCC/C=C\CC1)C[C@@]31CC3/C=C\CCCCN3[C@H]12 (stereo partly specified) ? T

Recorded call for O=C(N/N=C\c1ccc([N+](=O)[O-])s1)c1ccncc1 ? F

Recorded call for COc1ccc(C(SCCO)(c2ccc(OC)cc2)c2ccc(OC)cc2)cc1 ? F

====

tested on: K562; experiment: NCI tumour cell line growth inhibition, 48 h
The source made the active and inactive calls. No stated cut-off is given here; in the data, active = GI50 up to about 1.1 µM and inactive = higher.
Just give me one of these, please: active, inactive

Recorded call for Cc1ccc(Oc2ccccc2N)cc1 ? inactive

Recorded call for Nc1nc(N)c2ncn(Cc3ccccc3CO)c2n1 ? inactive

Recorded call for O=C(N/N=C\c1ccc([N+](=O)[O-])s1)c1ccncc1 ? inactive

Recorded call for Cc1c(-c2ccc(-c3ccccc3F)cc2)nc2ccc(F)cc2c1C(=O)O [BREQUINAR SODIUM] ? active

Recorded call for Cn1c(=O)nc2n(-c3ccc(Br)cc3)c3ccccc3nc-2c1=O ? inactive

Recorded call for CC(C)(C)OC(=O)N(CCCCNCc1ccc2ccccc2c1)CCCNCc1ccc2ccccc2c1 ? active

Recorded call for CCNC(=O)O/N=C1/C=C2CC[C@@H]3C(CC[C@@]4(C)C3CC[C@@H]4OC(=O)NCC)[C@@]2(C)CC1 (some centres not stated) ? inactive

====

Task for the reader: assign each of the following molecules its reported GI50.
system: SN12C; test: NCI tumour cell line growth inhibition, 48 h
The source made the active and inactive calls. Rule as the data show it: active = GI50 up to about 1.1 µM and inactive = higher.

# molecule, assay-system, reported-value
measured = [
    ("CCOC(=O)/C(=C\\c1cn(C(C)=O)c2ccccc12)P(C)(=O)OCC (stereo not given)", "SN12C", "26.8 µM (inactive)"),
    ("CS(=O)(=O)CCC(N)P(=O)(O)O (stereo not given)", "SN12C", "> 100 µM (inactive)"),
    ("CN(C)c1ccc(/C=C2\\N=C(N/N=C/c3ccccc3O)NC2=O)cc1", "SN12C", "36.7 µM (inactive)"),
    ("CCCC(C)c1c(Cl)nc(Cl)nc1Cl (stereo not given)", "SN12C", "7.94 µM (inactive)"),
]

Next:
Quote SN12C GI50 for entry CC(=O)OCC1(CNc2nc(N)ncc2C#N)CC(CCc2ccccc2)C1 (stereo not given) . > 100 µM (inactive)
